- test target: GABA A α5 (Homo sapiens, UniProt P18507+P31644)
- Construct: membranes prepared from cell pellets
- method notes: [3H]flumazenil competition binding, human GABA A α5β3γ2 receptors in HEK293 cell membranes
- condition set: human receptor α5β3γ2 transiently transfected in HEK293; 0.5 nM [3H]flumazenil; 1 hour at 4° C.; means of two determinations; read-out: hKi GABA A α5
readout name: Ki (nM)
Return type: number; implicit unit nM.

Examples from the recorded data:
Cn1nc(OCc2c(-c3ccc(F)cc3)noc2CO)cc1C(=O)NC1CCOC1 (racemic) [Example 97] : 4.5
Cc1onc(-c2ccc(F)cc2)c1COc1cc(C(=O)N[C@H](C)CO)n(C)n1 (single isomer, unassigned) [Example 76] : 10.8
Cc1onc(-c2ccc(F)cc2)c1CNc1cc(C(N)=O)n(C)n1 [Example 145] : 69.6

What is its Ki for GABA A α5 (Homo sapiens, UniProt P18507+P31644)? Entry: Cc1onc(-c2ccccn2)c1COc1cc(C(=O)NC(C)C)n(C)n1 [Example 78]
30.2
